Target: hM3 receptor (Homo sapiens, UniProt P20309)
Sequence (P20309 whole entry): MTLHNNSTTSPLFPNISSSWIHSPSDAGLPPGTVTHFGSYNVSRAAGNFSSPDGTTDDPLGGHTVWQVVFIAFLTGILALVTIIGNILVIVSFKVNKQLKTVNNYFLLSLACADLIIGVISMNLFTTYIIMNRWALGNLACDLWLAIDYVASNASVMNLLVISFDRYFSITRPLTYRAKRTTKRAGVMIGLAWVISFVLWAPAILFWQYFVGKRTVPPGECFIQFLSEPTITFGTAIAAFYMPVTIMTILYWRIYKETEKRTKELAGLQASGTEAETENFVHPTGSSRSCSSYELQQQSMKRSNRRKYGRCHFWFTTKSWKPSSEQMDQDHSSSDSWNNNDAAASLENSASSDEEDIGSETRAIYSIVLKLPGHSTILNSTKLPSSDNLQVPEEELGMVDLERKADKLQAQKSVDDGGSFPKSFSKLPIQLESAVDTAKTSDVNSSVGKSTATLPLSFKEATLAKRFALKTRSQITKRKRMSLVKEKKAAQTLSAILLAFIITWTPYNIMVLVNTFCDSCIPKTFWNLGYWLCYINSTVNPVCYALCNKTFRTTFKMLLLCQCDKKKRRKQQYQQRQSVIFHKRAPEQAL
Experiment: Blockade of agonist-mediated calcium release via FLIPR assay
Conditions: CHO cells stably expressing the hM3 receptor, oxotremorine at EC90
pKi: −log10 of the molar value.
outcome.measure: pKi

Q) Give its pKi value. Item: CN(CCN1CCC(OC(=O)Nc2ccccc2-c2ccccc2)CC1)C(=O)c1ccc(CN2CCC(C(N)=O)CC2)cc1
A) > 8.30

All values here come from patent US12258316B2.
